B1: Zinc finger homeobox protein 3, residues 2147 to 2202; numbered along this chain, Q15911 (parent)
chain: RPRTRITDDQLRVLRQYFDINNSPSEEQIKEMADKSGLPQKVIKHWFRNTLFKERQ

variants of: B1; test: abundance fitness (aPCA) (normalised: wild type 0, dead -1); higher = more abundant; growth selection in yeast, the domain comes from the species named; details: Homo sapiens
Rule: Yes for abundance fitness not less than -0.1, No for anything less.

[[record]]
alteration = "Q40Y"
assignedcategory = "Yes"

[[record]]
alteration = "S25F"
assignedcategory = "No"

[[record]]
alteration = "S23W"
assignedcategory = "No"


I'd appreciate it if you could say whether S23P has abundance fitness at least equal to -0.1. No

I'd appreciate it if you could say whether Q56D has abundance fitness at least equal to -0.1. No

I'd appreciate it if you could say whether G37N has abundance fitness at least equal to -0.1. No

I'd appreciate it if you could say whether R15D has abundance fitness at least equal to -0.1. No

I'd appreciate it if you could say whether V13R has abundance fitness at least equal to -0.1. No

I'd appreciate it if you could say whether D9S has abundance fitness at least equal to -0.1. Yes

I'd appreciate it if you could say whether V42P has abundance fitness at least equal to -0.1. No

I'd appreciate it if you could say whether V13C has abundance fitness at least equal to -0.1. No

I'd appreciate it if you could say whether Q28L has abundance fitness at least equal to -0.1. No

I'd appreciate it if you could say whether I6V has abundance fitness at least equal to -0.1. Yes

I'd appreciate it if you could say whether V13E has abundance fitness at least equal to -0.1. Yes
